Biological target: Human cytomegalovirus DNA polymerase (Human cytomegalovirus)
Construct: made in house; host or cells: SF21 insect cells (baculovirus vector)
Sequence (P08546 whole entry): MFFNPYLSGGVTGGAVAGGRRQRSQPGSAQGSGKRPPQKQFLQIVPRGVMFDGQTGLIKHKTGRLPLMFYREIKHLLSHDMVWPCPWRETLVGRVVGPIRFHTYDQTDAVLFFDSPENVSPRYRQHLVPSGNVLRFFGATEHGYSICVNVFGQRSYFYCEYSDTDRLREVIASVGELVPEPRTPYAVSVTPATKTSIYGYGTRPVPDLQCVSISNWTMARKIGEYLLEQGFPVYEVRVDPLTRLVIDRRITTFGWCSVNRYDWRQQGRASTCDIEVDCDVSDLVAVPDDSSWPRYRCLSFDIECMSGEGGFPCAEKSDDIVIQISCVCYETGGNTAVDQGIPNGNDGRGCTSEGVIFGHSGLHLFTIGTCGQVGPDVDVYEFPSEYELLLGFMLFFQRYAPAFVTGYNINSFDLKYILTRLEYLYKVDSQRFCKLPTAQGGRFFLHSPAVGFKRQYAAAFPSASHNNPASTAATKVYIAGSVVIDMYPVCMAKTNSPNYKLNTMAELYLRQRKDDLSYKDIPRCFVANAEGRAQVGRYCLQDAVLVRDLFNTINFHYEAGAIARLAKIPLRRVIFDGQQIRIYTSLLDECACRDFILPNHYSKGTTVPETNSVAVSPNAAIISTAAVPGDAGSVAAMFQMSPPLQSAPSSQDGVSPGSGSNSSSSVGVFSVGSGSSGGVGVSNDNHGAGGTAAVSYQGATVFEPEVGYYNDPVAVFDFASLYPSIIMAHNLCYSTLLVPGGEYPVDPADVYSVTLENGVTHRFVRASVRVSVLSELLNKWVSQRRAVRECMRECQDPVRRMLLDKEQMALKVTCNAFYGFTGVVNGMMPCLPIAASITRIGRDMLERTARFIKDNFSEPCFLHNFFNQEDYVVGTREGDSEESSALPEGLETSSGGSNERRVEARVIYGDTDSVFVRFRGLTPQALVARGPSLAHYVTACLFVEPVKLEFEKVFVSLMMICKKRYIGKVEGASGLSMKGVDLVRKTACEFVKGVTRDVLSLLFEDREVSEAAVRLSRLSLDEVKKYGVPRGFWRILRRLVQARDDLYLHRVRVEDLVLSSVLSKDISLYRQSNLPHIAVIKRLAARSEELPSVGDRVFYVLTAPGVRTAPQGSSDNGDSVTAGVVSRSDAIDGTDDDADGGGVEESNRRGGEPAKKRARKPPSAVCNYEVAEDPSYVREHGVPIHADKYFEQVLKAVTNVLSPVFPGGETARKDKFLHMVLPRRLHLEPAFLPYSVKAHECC
Experiment: CMV polymerase assay (AlphaLISA)
Format: biochemical
Details: CMV^a (IC50), polymerase assay of Example 27; HCMV polymerase 0.2 nM
measure: IC50 (nM)
Give bare numbers, in nM.

Each of the following entries comes with a recorded value; kindly state IC50 for each.
1. Cc1c(N2CCn3nncc3C2)ccc2c(C(=O)NCc3ccc(Cl)cc3)nn(CCOCCO)c12
2. Cc1c(N2CCn3nncc3C2)ccc2c(C(=O)NCc3ccc(Cl)cc3)nn(C3CCNC3)c12 (centres unmarked) [Compound 4]
3. Cc1nnn(C)c1COc1ccc2c(C(=O)NCc3ccc(Cl)cc3)nn(C[C@@H](C)O)c2c1F
4. Cc1c(N2CCn3nncc3C2)ccc2c(C(=O)NCc3ccc(C#N)cc3)nn(CCC#N)c12
5. Cc1c(N2CCn3nncc3C2)ccc2c(C(=O)NCc3ccc(Cl)cc3)nn(C3CCNC3)c12 (centres unmarked) [Compound 6]
6. Cc1cc(CN2CCCS(=O)(=O)CC2)cc2c(C(=O)NCc3ccc(C#N)cc3)nn(CCC#N)c12
7. NCCn1nc(C(=O)NCc2ccc(Cl)cc2)c2ccc(NCc3cnns3)c(Cl)c21

Key:
33
37
7.1
53
45
103
9.6

Exercise: Consider the molecule `Cc1c(N2CCn3nncc3C2)ccc2c(C(=O)NCc3ccc(C#N)cc3)nn(C[C@H](C)NC(=O)C(C)C)c12` and give its recorded IC50.
Key: 4.2
